assay-system: KRAS G12S (Homo sapiens (Human), UniProt P01116+P62937, G12S)
Sequence (P01116-2 other isoform, or with tags, fused parts or gaps G12S): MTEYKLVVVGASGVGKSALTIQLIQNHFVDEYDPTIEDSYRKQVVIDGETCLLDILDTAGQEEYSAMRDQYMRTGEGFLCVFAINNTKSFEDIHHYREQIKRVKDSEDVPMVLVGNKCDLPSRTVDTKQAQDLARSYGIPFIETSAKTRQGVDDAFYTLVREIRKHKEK
Sequence (P62937 whole entry): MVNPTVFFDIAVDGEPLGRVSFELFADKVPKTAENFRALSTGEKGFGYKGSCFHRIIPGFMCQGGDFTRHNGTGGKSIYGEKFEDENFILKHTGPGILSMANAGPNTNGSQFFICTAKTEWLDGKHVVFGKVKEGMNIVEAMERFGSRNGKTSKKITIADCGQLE
experiment-summary: Ras-Raf (BRAF RBD) disruption / FRET / MOA assay, KRAS G12S
Assay type: biochemical
condition-details: Ras-Raf disruption/FRET/MOA assay; class symbols; read-out: KRAS G12S FRET data IC50
pIC50: −log10 of the molar value.
observed-property: pIC50

INSERT INTO measurements (molecule, observed_property, value_observed) VALUES
  ('CCn1c(-c2cccnc2[C@H](C)OC)c2c3cc(ccc31)-c1nsc(n1)C[C@H](NC(=O)[C@H](C(C)C)N(C)C(=O)[C@H]1CCN(C(=O)C#CCN3CCOCC3)C1)C(=O)N1CCC[C@H](N1)C(=O)OCC(C)(C)C2 (atropisomer, axis not shown) [Example A201]', 'pIC50', '< 5.00'),
  ('CCn1c(-c2cccnc2[C@H](C)OC)c2c3cc(ccc31)-c1cccc(c1)C[C@H](NC(=O)[C@H](C(C)C)N(C)C(=O)[C@H]1CCN(C(=O)/C=C/C(F)F)C1)C(=O)N1CCC[C@H](N1)C(=O)OCC(C)(C)C2 (atropisomer, axis not shown) [Example A485]', 'pIC50', '5.00 to 6.00'),
  ('C=CC(=O)N1CC[C@H](C(=O)N(C)[C@H](C(=O)N[C@H]2Cc3cccc(c3)-c3ccc4c(c3)c(c(-c3cccnc3[C@H](C)OC)n4CC#CC)CC(C)(C)COC(=O)[C@@H]3CCCN(N3)C2=O)C(C)C)C1 (atropisomer, axis not shown) [Example A531]', 'pIC50', '5.00 to 6.00');

Exercise: What value of pIC50 has been recorded for this entry: C=C(F)C(=O)N1CC2(CCN(C(=O)N(C)[C@H](C(=O)N[C@H]3Cc4nc(cs4)-c4ccc5c(c4)c(c(-c4cccnc4[C@H](C)OC)n5CC)CC(C)(C)COC(=O)[C@@H]4CCCN(N4)C3=O)C(C)C)CC2)C1 (atropisomer, axis not shown) [Example A682]
Solution: 6.00 to 7.00

###

assay-system: K-Ras G13C (Homo sapiens (Human), UniProt P01116+P62937, G13C)
Sequence (P01116-2 other isoform, or with tags, fused parts or gaps G13C, one chain of several): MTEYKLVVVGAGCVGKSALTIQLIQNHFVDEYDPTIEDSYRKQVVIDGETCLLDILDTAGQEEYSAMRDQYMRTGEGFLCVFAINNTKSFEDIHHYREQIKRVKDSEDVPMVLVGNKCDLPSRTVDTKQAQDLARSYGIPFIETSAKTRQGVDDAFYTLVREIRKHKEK
experiment-summary: Ras-Raf (BRAF RBD) disruption / FRET / MOA assay, KRAS G13C
Type: biochemical
condition-details: KRAS G13C; Ras-Raf disruption/FRET/MOA assay; read-out: IC50* KRAS G13C FRET data
pIC50: −log10 of the molar value.
Please respond with reported pIC50 for every item in the list.

Known pIC50 results, listed for orientation:
INSERT INTO measurements (compound, observed_property, value_observed) VALUES
  ('C=CC(=O)N1CC2(CCN2C(=O)N(C)[C@H](C(=O)N[C@H]2Cc3cccc(n3)-c3ccc4c(c3)c(c(-c3cccnc3[C@H](C)OC)n4CC)CC(C)(C)COC(=O)[C@@H]3CCCN(N3)C2=O)C(C)C)C1 (atropisomer, axis not shown) [Example A636]', 'pIC50', '6.00 to 7.00'),
  ('C=CC(=O)N1CC[C@H](C(=O)N(C)[C@H](C(=O)N[C@H]2Cc3cccc(c3)-c3ccc4c(c3)c(c(-c3cccnc3[C@H](C)OC)n4CC)CC(C)(C)COC(=O)[C@@H]3CCCN(N3)C2=O)C2CC2)C1 (atropisomer, axis not shown) [Example A320]', 'pIC50', '5.00 to 6.00'),
  ('CCn1c(-c2cccnc2[C@H](C)OC)c2c3cc(ccc31)-c1cccc(c1)C[C@H](NC(=O)[C@H](C(C)C)N(C)C(=O)[C@H]1CCN(C(=O)C#CC(C)(C)N(C)C)C1)C(=O)N1CCC[C@H](N1)C(=O)OCC(C)(C)C2 (atropisomer, axis not shown) [Example A290]', 'pIC50', '5.00 to 6.00');

Would you kindly look at the next entry?
Exercise: pIC50 for CO[C@@H](C)c1ncccc1-c1c2c3cc(ccc3n1CC(F)(F)F)-c1cccc(c1)C[C@H](NC(=O)[C@@H](COC1CN(C(=O)C#CC3(C)OCCO3)C1)C(C)C)C(=O)N1CCC[C@H](N1)C(=O)OCC(C)(C)C2 (atropisomer, axis not shown) [Example A703] ?
Solution: 5.00 to 6.00

###

Consider the following compounds; for each one, report its pIC50.
assay-system: KRAS WT (Homo sapiens (Human), UniProt P01116+P62937)
Sequence (P01116-2 other isoform, or with tags, fused parts or gaps): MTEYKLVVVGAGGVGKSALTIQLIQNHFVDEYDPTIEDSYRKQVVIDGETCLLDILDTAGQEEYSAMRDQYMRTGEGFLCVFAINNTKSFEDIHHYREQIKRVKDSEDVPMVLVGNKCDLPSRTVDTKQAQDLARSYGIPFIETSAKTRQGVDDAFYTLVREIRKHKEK
Sequence (P62937 whole entry): as the sequence (P62937 whole entry) above
experiment-summary: Ras-Raf (BRAF RBD) disruption / FRET / MOA assay, KRAS WT
Assay type: biochemical
condition-details: read-out: IC50* KRAS WT FRET data
pIC50: −log10 of the molar value.

Reference set, count: 2
INSERT INTO results (compound, observed_property, value_observed) VALUES
  ('CCn1c(-c2cccnc2[C@H](C)OC)c2c3cc(ccc31)-c1cc(O)cc(c1)C[C@H](NC(=O)[C@H](C(C)C)N(C)C(=O)N1CCCN(C(=O)/C=C/CN(C)C)CC1)C(=O)N1CCC[C@H](N1)C(=O)OCC(C)(C)C2 (atropisomer, axis not shown)', 'pIC50', '7.00 to 8.00'),
  ('C=CC(=O)N1C[C@@H](C(=O)N(C)[C@H](C(=O)N[C@H]2Cc3cc(O)cc(c3)-c3ccc4c(c3)c(c(-c3cccnc3COC)n4CC)CC(C)(C)COC(=O)[C@@H]3CCCN(N3)C2=O)C(C)C)C[C@H]1C', 'pIC50', '6.00 to 7.00');

Shifting focus to the compound that follows.
Exercise: Hi! What's the reported pIC50 for CCn1c(-c2cccnc2[C@H](C)OC)c2c3cc(ccc31)-c1cccc(c1)C[C@H](NC(=O)C(COC1CN(C(=O)C#CC(C)(C)N(C)C)C1)C(C)C)C(=O)N1CCC[C@H](N1)C(=O)OCC(C)(C)C2 (stereo partly drawn) on KRAS WT (Homo sapiens (Human), UniProt P01116+P62937)?
Solution: < 5.00

###

assay-system: NRAS G12C (Homo sapiens (Human), UniProt P01111+P62937, G12C)
Sequence (P01111 whole entry G12C, one chain of several): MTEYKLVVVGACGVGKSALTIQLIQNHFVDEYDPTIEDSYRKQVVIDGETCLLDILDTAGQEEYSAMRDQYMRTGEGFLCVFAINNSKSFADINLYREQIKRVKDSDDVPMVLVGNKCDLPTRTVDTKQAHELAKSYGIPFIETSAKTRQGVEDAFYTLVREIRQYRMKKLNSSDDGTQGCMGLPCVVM
experiment-summary: Ras-Raf (BRAF RBD) disruption / FRET / MOA assay, NRAS G12C
Assay type: biochemical
condition-details: read-out: IC50* NRAS G12C FRET data
pIC50: −log10 of the molar value.
Exercise: for every item that follows, state its recorded pIC50.

Some solved entries appear below for comparison.
INSERT INTO results (compound, value_observed) VALUES
  ('CCn1c(-c2cccnc2[C@H](C)OC)c2c3cc(ccc31)-c1csc(n1)C[C@H](NC(=O)[C@H](C(C)C)N(C)C(=O)N(C)C1CN(C(=O)/C=C/[C@H]3CCCN3C)C1)C(=O)N1CCC[C@H](N1)C(=O)OCC(C)(C)C2 (atropisomer, axis not shown)', '6.00 to 7.00'),
  ('C=CC(=O)N1CCOC2(C1)CN(C(=O)N(C)[C@H](C(=O)N[C@H]1Cc3nc(cs3)-c3ccc4c(c3)c(c(-c3cccnc3[C@H](C)OC)n4CC(F)(F)F)CC(C)(C)COC(=O)[C@@H]3CCCN(N3)C1=O)C(C)C)C2 (atropisomer, axis not shown)', '6.00 to 7.00');

I have 5 compounds here; please give me pIC50 for each one.
1. C=CC(=O)N1CC[C@H](C(=O)N(C)[C@H](C(=O)N[C@H]2Cc3cc(C(F)F)cc(n3)-c3ccc4c(c3)c(c(-c3cccnc3[C@H](C)OC)n4CC)CC(C)(C)COC(=O)[C@@H]3CCCN(N3)C2=O)C(C)C)C1 (atropisomer, axis not shown)
2. CO[C@@H](C)c1ncccc1-c1c2c3cc(ccc3n1CC(F)(F)F)-c1cccc(c1)C[C@H](NC(=O)[C@@H](COC1CN(C(=O)C#CC(C)(C)N(C)C)C1)C(C)C)C(=O)N1CCC[C@H](N1)C(=O)OCC(C)(C)C2 (atropisomer, axis not shown)
3. C=CC(=O)N1CC2(CCN2C(=O)N(C)[C@H](C(=O)N[C@H]2Cc3nc(cs3)-c3ccc4c(c3)c(c(-c3cccnc3[C@H](C)OC)n4CC)CC(C)(C)COC(=O)[C@@H]3CCCN(N3)C2=O)C(C)C)C1 (atropisomer, axis not shown)
4. C=CC(=O)N1CCC2(CCN(C(=O)N(C)[C@H](C(=O)N[C@H]3Cc4nc(cs4)-c4ccc5c(c4)c(c(-c4cccnc4[C@H](C)OC)n5CC)CC(C)(C)COC(=O)[C@@H]4CCCN(N4)C3=O)C(C)C)CC2)C1 (atropisomer, axis not shown)
5. C=CC(=O)N1CCC2(CC1)CCN([C@H](C(=O)N[C@H]1Cc3cc(O)cc(c3)-c3ccc4c(c3)c(c(-c3cccnc3[C@H](C)OC)n4CC)CC(C)(C)COC(=O)[C@@H]3CCCN(N3)C1=O)C(C)C)C2=O (atropisomer, axis not shown)

Solution:
["5.00 to 6.00", "> 8.00", "> 8.00", "7.00 to 8.00", "7.00 to 8.00"]

Exercise: For the compound shown here, CCn1c(-c2cccnc2[C@H](C)OC)c2c3cc(ccc31)-c1cc(O)cc(c1)C[C@H](NC(=O)[C@H](C(C)C)N(C)C(=O)N1CCCN(C(=O)/C=C/CN(C)C)CC1)C(=O)N1CCC[C@H](N1)C(=O)OCC(C)(C)C2 (atropisomer, axis not shown) , give the reported pIC50.
Solution: 7.00 to 8.00

All figures here come from patent US11566007B2.
